Assay remarks: in vivo
Stated conditions: male, Wistar Han, rat, in vivo; day 14; single IM Example 37A 56 mg/kg; read-out: Mean concentration of Example 37A
Measurement type: concentration at 14 day (ng/mL)
Write down the numeric answer in ng/mL and omit the unit.

Query C#C[C@]1(COP(=O)(N[C@@H](C)C(=O)OC(CCCCCCCCCC)CCCCCCCCCC)Oc2ccccc2)O[C@@H](n2cnc3c(N)nc(F)nc32)C[C@@H]1O (single isomer, unassigned) [Example 37A] yields concentration at 14 day of 3.8

* * *

Assay remarks: in vivo
Stated conditions: male, Wistar Han, rat, in vivo; day 49; single IM 63 mg/kg; read-out: Mean concentration of Example 26A
Measurement type: concentration at 49 day (ng/mL)
Write down the numeric answer in ng/mL and omit the unit.

Query C#C[C@]1(COP(=O)(N[C@@H](Cc2ccccc2)C(=O)OC(CCCCCCCCCCC)CCCCCCCCCCC)Oc2ccccc2)O[C@@H](n2cnc3c(N)nc(F)nc32)C[C@@H]1O (single isomer, unassigned) [Example 26A] yields concentration at 49 day of 9.62

* * *

Assay remarks: in vivo
Stated conditions: male, Wistar Han, rat, in vivo; day 42; single IM Example 1B 62 mg/kg; read-out: Mean concentration of Example 1B
Measurement type: concentration at 42 day
Answer with the figure and its unit, nothing else.

Query C#C[C@]1(COP(=O)(N[C@@H](Cc2ccccc2)C(=O)OCCCCCCCCCCCCCCCCCCCCCC)Oc2ccccc2)O[C@@H](n2cnc3c(N)nc(F)nc32)C[C@@H]1O (single isomer, unassigned) [Example 1B] yields concentration at 42 day of 1.92 ng/mL

* * *

Assay remarks: EFdA Rat PK Studies (subcutaneous and intramuscular groups), plasma concentration by LC-MS/MS
Assay type: in vivo, Wistar Han rats
Stated conditions: male, Wistar Han, rat, plasma, sc, 20 mg/kg, 48 hr; SC 20 mg/kg; plasma; read-out: Assayed Concentrations of EFdA, individual rats
Measurement type: concentration at 48 h (ng/mL)
Write down the numeric answer in ng/mL and omit the unit.

Query C#C[C@]1(CO)O[C@@H](n2cnc3c(N)nc(F)nc32)C[C@@H]1O yields concentration at 48 h of 0.771

* * *

Assay remarks: in vivo
Stated conditions: male, Wistar Han, rat, in vivo; day 7; single IM Example 1B 62 mg/kg; read-out: Mean concentration of Example 1B
Measurement type: concentration at 7 day (ng/mL)
Write down the numeric answer in ng/mL and omit the unit.

Query C#C[C@]1(COP(=O)(N[C@@H](Cc2ccccc2)C(=O)OCCCCCCCCCCCCCCCCCCCCCC)Oc2ccccc2)O[C@@H](n2cnc3c(N)nc(F)nc32)C[C@@H]1O (single isomer, unassigned) [Example 1B] yields concentration at 7 day of 8.75

* * *

Assay remarks: in vivo
Stated conditions: male, Wistar Han, rat, in vivo; day 14; single IM Example 2B 20 mg/kg; read-out: Mean concentration of Example 2B
Measurement type: concentration at 14 day (ng/mL)
Write down the numeric answer in ng/mL and omit the unit.

Query C#C[C@]1(COP(=O)(N[C@@H](Cc2ccccc2)C(=O)OCCCCCCCCCCCCCCCC)Oc2ccccc2)O[C@@H](n2cnc3c(N)nc(F)nc32)C[C@@H]1O (single isomer, unassigned) yields concentration at 14 day of 1.11

* * *

Assay remarks: in vivo
Stated conditions: male, Wistar Han, rat, in vivo; day 77; single IM Example 37A 56 mg/kg; read-out: Mean concentration of Example 37A
Excerpt: General Protocol for Prodrugs Rat PK Studies Conducted at ChemPartner, China A total of three naïve male Wistar Han rats, 200-250 g, were received from Beijing VR Laboratory Animal Co. LTD. Following an acclimation period, the animals were assigned to the study based on acceptable health as determined by a staff veterinarian and catheter patency. Fasting of the animals before or after dosing was not required. […]
Measurement type: concentration at 77 day (ng/mL)
Write down the numeric answer in ng/mL and omit the unit.

Query C#C[C@]1(COP(=O)(N[C@@H](C)C(=O)OC(CCCCCCCCCC)CCCCCCCCCC)Oc2ccccc2)O[C@@H](n2cnc3c(N)nc(F)nc32)C[C@@H]1O (single isomer, unassigned) [Example 37A] yields concentration at 77 day of 3.46

* * *

Assay remarks: in vivo
Stated conditions: male, Wistar Han, rat, in vivo; day 14; single IM Example 18A 54 mg/kg; read-out: Mean concentration of Example 18A
Measurement type: concentration at 14 day (ng/mL)
Write down the numeric answer in ng/mL and omit the unit.

Query C#C[C@]1(COP(=O)(N[C@@H](Cc2ccccc2)C(=O)OCCCCCCCCCCCCCC)Oc2ccccc2)O[C@@H](n2cnc3c(N)nc(F)nc32)C[C@@H]1O (single isomer, unassigned) [Example 18A] yields concentration at 14 day of 1.44

* * *

Assay remarks: in vivo
Stated conditions: male, Wistar Han, rat, in vivo; day 7; single IM Example 2A 56 mg/kg; read-out: Mean concentration of Example 2A
Source text: General Protocol for Prodrugs Rat PK Studies Conducted at ChemPartner, China A total of three naïve male Wistar Han rats, 200-250 g, were received from Beijing VR Laboratory Animal Co. LTD. Following an acclimation period, the animals were assigned to the study based on acceptable health as determined by a staff veterinarian and catheter patency. Fasting of the animals before or after dosing was not required. […]
Measurement type: concentration at 7 day (ng/mL)
Write down the numeric answer in ng/mL and omit the unit.

Query C#C[C@]1(COP(=O)(N[C@@H](Cc2ccccc2)C(=O)OCCCCCCCCCCCCCCCC)Oc2ccccc2)O[C@@H](n2cnc3c(N)nc(F)nc32)C[C@@H]1O (single isomer, unassigned) yields concentration at 7 day of 1.35

* * *

Assay remarks: in vivo
Stated conditions: male, Wistar Han, rat, whole blood, intramuscular; day 21; single IM Example 11A 20 mg/kg equivalent of EFdA; read-out: Mean concentration of Example 11A
Measurement type: concentration at 21 day (ng/mL)
Write down the numeric answer in ng/mL and omit the unit.

Query C#C[C@]1(COP(=O)(N[C@@H](Cc2ccccc2)C(=O)OCCCCCCCCCCCC)OCC(=O)OCCCCCCCCCCCC)O[C@@H](n2cnc3c(N)nc(F)nc32)C[C@@H]1O (single isomer, unassigned) [Example 11A] yields concentration at 21 day of 2.68

* * *

Assay remarks: in vivo
Stated conditions: male, Wistar Han, rat, in vivo, 20 mg/kg equivalent of EFdA; day 14; single IM Example 1A 20 mg/kg; read-out: Mean concentration of Example 1A
Measurement type: concentration at 14 day (ng/mL)
Write down the numeric answer in ng/mL and omit the unit.

Query C#C[C@]1(COP(=O)(N[C@@H](Cc2ccccc2)C(=O)OCCCCCCCCCCCCCCCCCCCCCC)Oc2ccccc2)O[C@@H](n2cnc3c(N)nc(F)nc32)C[C@@H]1O (single isomer, unassigned) [Example 1A] yields concentration at 14 day of 1.86

* * *

Assay remarks: in vivo
Stated conditions: male, Wistar Han, rat, in vivo; day 77; single IM 63 mg/kg; read-out: Mean concentration of Example 26A
Measurement type: concentration at 77 day (ng/mL)
Write down the numeric answer in ng/mL and omit the unit.

Query C#C[C@]1(COP(=O)(N[C@@H](Cc2ccccc2)C(=O)OC(CCCCCCCCCCC)CCCCCCCCCCC)Oc2ccccc2)O[C@@H](n2cnc3c(N)nc(F)nc32)C[C@@H]1O (single isomer, unassigned) [Example 26A] yields concentration at 77 day of 9.69

* * *

Assay remarks: in vivo
Stated conditions: male, Wistar Han, rat, whole blood, intramuscular; day 28; single IM Example 11A 20 mg/kg equivalent of EFdA; read-out: Mean concentration of Example 11A
Measurement type: concentration at 28 day (ng/mL)
Write down the numeric answer in ng/mL and omit the unit.

Query C#C[C@]1(COP(=O)(N[C@@H](Cc2ccccc2)C(=O)OCCCCCCCCCCCC)OCC(=O)OCCCCCCCCCCCC)O[C@@H](n2cnc3c(N)nc(F)nc32)C[C@@H]1O (single isomer, unassigned) [Example 11A] yields concentration at 28 day of 2

* * *

Assay remarks: in vivo
Stated conditions: male, Wistar Han, rat, in vivo; day 56; single IM Example 43A 60 mg/kg; read-out: Mean concentration of Example 43A
Measurement type: concentration at 56 day (ng/mL)
Write down the numeric answer in ng/mL and omit the unit.

Query C#C[C@]1(COP(=O)(N[C@@H](Cc2ccccc2)C(=O)OCCCCCCCCCCCCCCCCCCCC)Oc2ccccc2)O[C@@H](n2cnc3c(N)nc(F)nc32)C[C@@H]1O (single isomer, unassigned) [Example 43A] yields concentration at 56 day of 8.67

* * *

Assay remarks: in vivo
Stated conditions: male, Wistar Han, rat, in vivo; day 84; single IM Example 37A 56 mg/kg; read-out: Mean concentration of Example 37A
Measurement type: concentration at 84 day (ng/mL)
Write down the numeric answer in ng/mL and omit the unit.

Query C#C[C@]1(COP(=O)(N[C@@H](C)C(=O)OC(CCCCCCCCCC)CCCCCCCCCC)Oc2ccccc2)O[C@@H](n2cnc3c(N)nc(F)nc32)C[C@@H]1O (single isomer, unassigned) [Example 37A] yields concentration at 84 day of 3.32
